- measured on: T1, His-human LIGHT (human)
- T1 chain: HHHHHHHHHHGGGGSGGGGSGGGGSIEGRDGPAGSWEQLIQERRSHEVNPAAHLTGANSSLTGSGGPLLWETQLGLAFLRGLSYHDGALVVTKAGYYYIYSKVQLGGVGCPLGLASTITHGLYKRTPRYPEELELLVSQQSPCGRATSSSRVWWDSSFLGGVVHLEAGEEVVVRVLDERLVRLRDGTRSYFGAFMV
- protocol notes: cell-based or functional assay
This section presents binders with their documented IC50, HVEM NF-κB luciferase reporter, free LIGHT values.
The response must be a number in µg/mL with no trailing unit.

binder	reported value
hum_LT-m37-4 (antibody, human IgG4, V domains shown, humanized from LT-m37) VH: QVQLVQSGAEVKKPGASVKVSCKASGYSFTGYFINWVRQAPGQGLEWIGRIYPYNVNTFYNQNFKGRVTMTADKSTSTAYMELSSLRSEDTAVYYCGRGTHYYGSSGAMDYWGQGTLVTVSS VL: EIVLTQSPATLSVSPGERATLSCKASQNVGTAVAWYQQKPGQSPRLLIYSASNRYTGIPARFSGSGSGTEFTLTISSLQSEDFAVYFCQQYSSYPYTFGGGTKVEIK	0.0677

Could you now look at the following binder, please?
Supply IC50, HVEM NF-κB luciferase reporter, free LIGHT value. Item: hum_LT-m37-6 (antibody, human IgG4, V domains shown, humanized from LT-m37) VH: QVQLVQSGAEVKKPGASVKVSCKASGYSFTGYFINWVRQAPGQGLEWIGRIYPYNVNTFYNQNFKGRATLTADKSTSTAYMELSSLRSEDTAVYYCGRGTHYYGSSGAMDYWGQGTLVTVSS VL: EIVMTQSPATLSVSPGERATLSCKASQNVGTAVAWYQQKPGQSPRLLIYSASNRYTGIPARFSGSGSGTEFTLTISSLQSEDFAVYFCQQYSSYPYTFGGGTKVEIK
0.0518
